- TEST_SYSTEM: 5-HT1A receptor (Rattus norvegicus)
- Construct: synaptosomal membranes isolated from cerebral cortex; from tissue; host or cells: rat cerebral cortex, crude synaptosomal membranes (male Sprague-Dawley rats, Harlan Industries)
- Sequence (P19327 whole entry): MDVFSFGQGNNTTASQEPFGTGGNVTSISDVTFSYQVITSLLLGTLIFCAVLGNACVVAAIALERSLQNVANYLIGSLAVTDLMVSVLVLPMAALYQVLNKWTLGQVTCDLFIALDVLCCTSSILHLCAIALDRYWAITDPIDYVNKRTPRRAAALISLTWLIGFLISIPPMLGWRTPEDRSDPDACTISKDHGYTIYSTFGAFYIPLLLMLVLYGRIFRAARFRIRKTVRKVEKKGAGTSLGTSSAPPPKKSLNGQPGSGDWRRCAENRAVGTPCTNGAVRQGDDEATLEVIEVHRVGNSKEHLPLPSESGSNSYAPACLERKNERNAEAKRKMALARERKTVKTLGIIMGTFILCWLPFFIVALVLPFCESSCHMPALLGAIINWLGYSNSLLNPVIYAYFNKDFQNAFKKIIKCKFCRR
- ASSAY_SUMMARY: Inhibition of 3H-8-OH-DPAT binding to rat cerebral cortex synaptosomal membranes (binding at 5HT1a in vitro)
- Design: species or system rat (male Sprague-Dawley)
Counter-ions that a name gives are not always drawn.
MEASUREMENT_NAME: IC50 (nM)
Express the result in nM but write the number alone.

Q: Bench note: what IC50 did CCCN(CCC)C1CCc2cccc(C(=O)C(C)(C)C)c2C1 (stereo not shown) [Example 7, hydrobromide salt] show?
Result: 9
